organism: Rattus norvegicus; experiment: Selectivity ratio of Ki for rat cortical DOR to Ki for rat cortical MOR
Where a SMILES comes first, the peptide text is derived from it. Bridges are numbered along the chain shown (N, C = ends). [ ]: non-standard residue; d: D form. 2Abz = Nc1ccccc1C(=O)O; Dap = NC[C@H](N)C(=O)O
Exercise: state measured Ratio Ki for each of the compounds provided.
Form field (numeric): enter value without unit.

// returns reported Ratio Ki for input Nc1ccccc1C(=O)NC[C@@H]1NC(=O)[C@H](NC(=O)[C@@H](N)Cc2ccc(O)cc2)CCCCNC(=O)CNC(=O)[C@H](Cc2ccc(O)cc2)NC1=O (H-Y[dK][Dap](2Abz)YG; lactam 2-C)
62

// returns reported Ratio Ki for input `N[C@@H](Cc1ccc(O)cc1)C(=O)N[C@@H]1CCCCNC(=O)CNC(=O)[C@H](Cc2ccc(O)cc2)NC(=O)[C@H](Cc2c[nH]c3ccccc23)NC1=O`
50

// returns reported Ratio Ki for input `NC(=O)NCCC[C@@H]1NC(=O)[C@H](NC(=O)[C@@H](N)Cc2ccc(O)cc2)CCCCNC(=O)CNC(=O)[C@H](Cc2ccc(O)cc2)NC1=O`
367

// returns reported Ratio Ki for input `N[C@@H](Cc1ccc(O)cc1)C(=O)N[C@@H]1CCCCNC(=O)CNC(=O)[C@H](Cc2ccc(O)cc2)NC(=O)[C@H](Cc2ccncc2)NC1=O`
247

// returns reported Ratio Ki for input `N[C@@H](Cc1ccc(O)cc1)C(=O)N[C@@H]1CCCCNC(=O)CNC(=O)[C@H](Cc2ccc(O)cc2)NC(=O)[C@H](Cc2ccccc2)NC1=O`
39

// returns reported Ratio Ki for input `N[C@@H](Cc1ccc(O)cc1)C(=O)N[C@@H]1CCCCNC(=O)CNC(=O)[C@H](Cc2ccc(O)cc2)NC(=O)[C@H](Cc2cccnc2)NC1=O`
658

// returns reported Ratio Ki for input `N[C@@H](Cc1ccc(O)cc1)C(=O)N[C@@H]1CCCCNC(=O)CNC(=O)[C@H](Cc2ccc(O)cc2)NC(=O)[C@H](Cc2ccc(O)cc2)NC1=O`
1.5

----------
Exercise: state measured Ki for each of the compounds provided.
Number in nM, nothing else.

Please state recorded Ki (tested on UniProt:P33535) of `N[C@@H](Cc1ccc(O)cc1)C(=O)N[C@@H]1CCCCNC(=O)CNC(=O)[C@H](Cc2ccc(O)cc2)NC(=O)[C@H](Cc2ccncc2)NC1=O`
Sequence (P33535 whole entry): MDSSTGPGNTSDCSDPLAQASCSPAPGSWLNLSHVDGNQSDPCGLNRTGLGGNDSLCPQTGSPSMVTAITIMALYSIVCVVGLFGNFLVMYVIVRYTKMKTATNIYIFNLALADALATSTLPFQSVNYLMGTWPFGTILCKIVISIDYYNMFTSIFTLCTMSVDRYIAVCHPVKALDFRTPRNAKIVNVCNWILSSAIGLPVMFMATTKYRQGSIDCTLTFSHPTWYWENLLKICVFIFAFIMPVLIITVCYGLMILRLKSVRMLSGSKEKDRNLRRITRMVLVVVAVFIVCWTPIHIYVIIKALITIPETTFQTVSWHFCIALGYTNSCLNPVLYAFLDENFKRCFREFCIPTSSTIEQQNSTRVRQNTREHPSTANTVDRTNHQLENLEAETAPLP
9.21

Please state recorded Ki (tested on UniProt:P33535) of `N[C@@H](Cc1ccc(O)cc1)C(=O)N[C@@H]1CCCCNC(=O)CNC(=O)[C@H](Cc2ccc(O)cc2)NC(=O)[C@H](Cc2cccnc2)NC1=O`
1.95

Please state recorded Ki (tested on UniProt:P33535) of `N[C@@H](Cc1ccc(O)cc1)C(=O)N[C@@H]1CCCCNC(=O)CNC(=O)[C@H](Cc2ccc(O)cc2)NC(=O)[C@H](Cc2c[nH]c3ccccc23)NC1=O`
1.99

Please state recorded Ki (tested on UniProt:P33535) of `N[C@@H](Cc1ccc(O)cc1)C(=O)N[C@@H]1CCCCNC(=O)CNC(=O)[C@H](Cc2ccc(O)cc2)NC(=O)[C@H](Cc2ccc(O)cc2)NC1=O`
114

Please state recorded Ki (tested on UniProt:P33535) of `N=C(N)NCCC[C@@H]1NC(=O)[C@H](NC(=O)[C@@H](N)Cc2ccc(O)cc2)CCCCNC(=O)CNC(=O)[C@H](Cc2ccc(O)cc2)NC1=O`
17.4

Please state recorded Ki (tested on UniProt:P33535) of `NC(=O)NCCC[C@@H]1NC(=O)[C@H](NC(=O)[C@@H](N)Cc2ccc(O)cc2)CCCCNC(=O)CNC(=O)[C@H](Cc2ccc(O)cc2)NC1=O`
9.04

Please state recorded Ki (tested on UniProt:P33535) of `N[C@@H](Cc1ccc(O)cc1)C(=O)N[C@@H]1CCCCNC(=O)CNC(=O)[C@H](Cc2ccc(O)cc2)NC(=O)[C@H](Cc2ccccc2)NC1=O`
0.99

----------
Exercise: state measured pKi for each of the molecules provided.
# log scale: pKi equals minus log10 of the concentration in mol/L

Please state recorded pKi (tested on Kappa-type opioid receptor (Cavia porcellus)) of `NC(=O)NCCC[C@@H]1NC(=O)[C@H](NC(=O)[C@@H](N)Cc2ccc(O)cc2)CCCCNC(=O)CNC(=O)[C@H](Cc2ccc(O)cc2)NC1=O`
5.07

Please state recorded pKi (tested on Kappa-type opioid receptor (Cavia porcellus)) of `N=C(N)NCCC[C@@H]1NC(=O)[C@H](NC(=O)[C@@H](N)Cc2ccc(O)cc2)CCCCNC(=O)CNC(=O)[C@H](Cc2ccc(O)cc2)NC1=O`
5.07

Please state recorded pKi (tested on Kappa-type opioid receptor (Cavia porcellus)) of `N[C@@H](Cc1ccc(O)cc1)C(=O)N[C@@H]1CCCCNC(=O)CNC(=O)[C@H](Cc2ccc(O)cc2)NC(=O)[C@H](Cc2c[nH]c3ccccc23)NC1=O`
5.09

Please state recorded pKi (tested on Kappa-type opioid receptor (Cavia porcellus)) of `N[C@@H](Cc1ccc(O)cc1)C(=O)N[C@@H]1CCCCNC(=O)CNC(=O)[C@H](Cc2ccc(O)cc2)NC(=O)[C@H](Cc2cccnc2)NC1=O`
5.27

----------
biological target: Delta-type opioid receptor (Rattus norvegicus, UniProt P33533); assay: Displacement of [3H]DPDPE from rat cortical DOR after […] by liquid scintillation counting method
Sequence (P33533 whole entry): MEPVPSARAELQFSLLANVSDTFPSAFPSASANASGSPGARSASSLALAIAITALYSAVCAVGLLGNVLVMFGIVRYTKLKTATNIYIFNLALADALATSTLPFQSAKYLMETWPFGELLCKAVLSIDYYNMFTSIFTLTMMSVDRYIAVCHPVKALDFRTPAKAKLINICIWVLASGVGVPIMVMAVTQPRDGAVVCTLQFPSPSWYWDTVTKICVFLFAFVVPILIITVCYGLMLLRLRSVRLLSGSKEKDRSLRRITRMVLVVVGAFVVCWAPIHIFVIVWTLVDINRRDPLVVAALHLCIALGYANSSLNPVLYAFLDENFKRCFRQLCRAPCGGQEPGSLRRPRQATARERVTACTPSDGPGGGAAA
Exercise: state measured log10 of Ki for each of the compounds provided.
Scale: decimal log of Ki, Ki in µM.

// returns reported log10 of Ki for input `NC(=O)NCCC[C@@H]1NC(=O)[C@H](NC(=O)[C@@H](N)Cc2ccc(O)cc2)CCCCNC(=O)CNC(=O)[C@H](Cc2ccc(O)cc2)NC1=O`
0.52

// returns reported log10 of Ki for input `N[C@@H](Cc1ccc(O)cc1)C(=O)N[C@@H]1CCCCNC(=O)CNC(=O)[C@H](Cc2ccc(O)cc2)NC(=O)[C@H](Cc2cccnc2)NC1=O`
0.11

// returns reported log10 of Ki for input `N[C@@H](Cc1ccc(O)cc1)C(=O)N[C@@H]1CCCCNC(=O)CNC(=O)[C@H](Cc2ccc(O)cc2)NC(=O)[C@H](Cc2ccc(O)cc2)NC1=O`
-0.77

// returns reported log10 of Ki for input `N[C@@H](Cc1ccc(O)cc1)C(=O)N[C@@H]1CCCCNC(=O)CNC(=O)[C@H](Cc2ccc(O)cc2)NC(=O)[C@H](Cc2ccncc2)NC1=O`
0.36

// returns reported log10 of Ki for input `N[C@@H](Cc1ccc(O)cc1)C(=O)N[C@@H]1CCCCNC(=O)CNC(=O)[C@H](Cc2ccc(O)cc2)NC(=O)[C@H](Cc2c[nH]c3ccccc23)NC1=O`
-1.00

// returns reported log10 of Ki for input `N[C@@H](Cc1ccc(O)cc1)C(=O)N[C@@H]1CCCCNC(=O)CNC(=O)[C@H](Cc2ccc(O)cc2)NC(=O)[C@H](Cc2ccccc2)NC1=O`
-1.41

----------
Where a SMILES comes first, the peptide text is derived from it. Bridges are numbered along the chain shown (N, C = ends). [ ]: non-standard residue; d: D form. 2Abz = Nc1ccccc1C(=O)O; Dap = NC[C@H](N)C(=O)O
System: Kappa-type opioid receptor (Cavia porcellus, UniProt P41144) | Read-out: pKi
Sequence (P41144 whole entry): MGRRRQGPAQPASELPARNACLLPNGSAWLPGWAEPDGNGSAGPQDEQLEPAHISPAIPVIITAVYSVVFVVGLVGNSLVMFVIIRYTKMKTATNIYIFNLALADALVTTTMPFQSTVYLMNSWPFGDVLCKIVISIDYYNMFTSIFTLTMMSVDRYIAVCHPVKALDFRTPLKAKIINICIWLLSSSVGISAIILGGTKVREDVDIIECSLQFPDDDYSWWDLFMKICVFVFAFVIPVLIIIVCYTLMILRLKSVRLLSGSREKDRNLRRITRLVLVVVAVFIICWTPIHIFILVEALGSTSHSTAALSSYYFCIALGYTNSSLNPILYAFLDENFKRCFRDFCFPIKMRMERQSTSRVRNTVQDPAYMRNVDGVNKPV
# log scale: pKi equals minus log10 of the concentration in mol/L

// returns reported pKi for input Nc1ccccc1C(=O)NC[C@@H]1NC(=O)[C@H](NC(=O)[C@@H](N)Cc2ccc(O)cc2)CCCCNC(=O)CNC(=O)[C@H](Cc2ccc(O)cc2)NC1=O (H-Y[dK][Dap](2Abz)YG; lactam 2-C)
5.49

// returns reported pKi for input `N[C@@H](Cc1ccc(O)cc1)C(=O)N[C@@H]1CCCCNC(=O)CNC(=O)[C@H](Cc2ccc(O)cc2)NC(=O)[C@H](Cc2ccccc2)NC1=O`
5.35
